From: PubChem BioAssay (NCI)

- System: HOP-92 NSCLC
- ASSAY SUMMARY: NCI tumour cell line growth inhibition, 48 h
Kindly state log10(TGI) for each of the entries shown.
Could you please treat all values as log10 of TGI in µM?

MOLECULE	TESTED ON	READOUT NAME	NUMERIC READOUT
CC1=C2C(=O)c3ccccc3C(=O)[C@H]2[C@H]2CCO[C@H]2O1	HOP-92 NSCLC	log10(TGI)	1.63
CCCCNCC(=O)O[C@]1(CC)C(=O)OCc2c1cc1n(c2=O)Cc2cc3ccccc3nc2-1	HOP-92 NSCLC	log10(TGI)	1.09
CCCCCCCCCCCCCCCCCC(=O)OCC(COC1OC(COP(=O)(O)O)C(O)C(O)C1O)OC(=O)CCCCCCCCCCCCCCCCC (stereo not given)	HOP-92 NSCLC	log10(TGI)	1.02

# return log10(TGI) for each item in the list
1. Brc1cccc(C2SCc3nc4ccccc4n32)c1 (stereo not given)
2. CC1=C(N2CC2)C(=O)c2nc3n(c2C1=O)CCC3OC(=O)CCl (stereo not given)
3. Cc1cc(NCc2cc(Nc3ccnc4cc(Cl)ccc34)ccc2F)nc(N2CCCC2)n1

1: 1.55; 2: 0.91; 3: 0.42

I have 6 molecules here; please give me log10(TGI) for each one.
1. CCOC(=O)c1sc2c(c1OC(=O)c1cccs1)c(=O)n(-c1ccccc1)c(=S)n2-c1ccccc1
2. COc1ccc(-c2n[nH]nc2-c2cc(OC)c3c(c2OC)OCO3)cc1
3. N#Cc1c(N)oc(-c2cccc([N+](=O)[O-])c2)c1C#N
4. Nc1ncnc2[nH]ncc12
5. CCC1C(c2cc(OC)c(OC)c(OC)c2)c2cc3c(cc2OC1N1CCCC1)OCO3 (stereo not given)
6. CC(C)(C)c1ccc(OCCCCCCN2CCNCC2)cc1

1.72
1.35
1.58
0.56
1.33
1.29
